All values here come from patent US20250320312A1.

- Experimental Target: T1, Peptide 4: Biotin-AGGGGSGGGGSGGGGSAAA-Tyr-acid (N-terminal biotin; C-terminal acid; no PC)
- T1 construct: control peptide without PC
- T1 peptide: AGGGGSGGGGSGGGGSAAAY
- Protocol Notes: scFv ELISA
Below is a list of entries, each paired with its recorded OD450 value.
Readout Type: OD450 (OD450)

1. PcOxP_DB04_H07 (scFv, V domains shown, scFv in periplasmic extract) VH: EVQLLESGGGLVQPGGSLRLSCAASGFTFEDFYMEWVRQAPGKGLEWVAASRNKANDYTTEYADSVKGRFTISRDNSKNTLYLQMNSLRAEDTAVYYCARDYYGSSYWYFDVWGQGTLVTVSS VL: DIQMTQSPSSLSASVGDRVTITCTASESLYSSKHKVHYLAWYQQKPGKAPKLLIYGASNRVIGVPSRFSGSGSGTDFTLTISSLQPEDFATYYCAQFYSYPLTFGGGTKVEIK    0.06
2. PcOxP_DB04_B06 (scFv, V domains shown, scFv in periplasmic extract) VH: EVQLLESGGGLVQPGGSLRLSCAASGFTFSDAYMEWVRQAPGKGLEWVAASRNKANDYTTEYADSVKGRFTISRDNSKNTLYLQMNSLRAEDTAVYYCARDYYGSSYWYFDVWGQGTLVTVSS VL: DIQMTQSPSSLSASVGDRVTITCTASESLYSSKHKVHYLAWYQQKPGKAPKLLIYGASNRYIGVPSRFSGSGSGTDFTLTISSLQPEDFATYYCAQFYDYPLTFGGGTKVEIK    0.06
3. PcOxP_DB01_F11 (scFv, V domains shown, scFv in periplasmic extract) VH: EVQLLESGGGLVQPGGSLRLSCAASGFTFSSYYMEWVRQAPGKGLEWVAASRNKANDYTTEYADSVKGRFTISRDNSKNTLYLQMNSLRAEDTAVYYCARDYYGSSYWYYDVWGQGTLVTVSS VL: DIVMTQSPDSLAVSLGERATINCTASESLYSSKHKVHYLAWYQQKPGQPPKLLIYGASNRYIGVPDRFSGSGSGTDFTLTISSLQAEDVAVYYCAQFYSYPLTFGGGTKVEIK    0.07
